experimental.system: equine FcRn (large alpha subunit p51) in complex with equine beta-2-microglobulin (equine) (UniProt F6XZ61)
experiment: SPR (Biacore), pH 6
Here, each record is paired with measured Kd data.
Please give a number only; it is taken to be in nM.

Here's what some known entries look like.
>>> value_observed("equine IgG7 M428C mutant (antibody, part only; not given: Variable domains, not shown: another chain or arm of the molecule) constant: ASTTAPKVFPLASHSAATSGSTVALGCLVSSYFPEPVTVSWNSGALTSGVHTFPSVLQSSGLYSLSSMVTVPASSLKSQTYICNVAHPASSTKVDKKIVIKECGGCPTCPECLSVGPSVFIFPPKPKDVLMISRTPTVTCVVVDVGHDFPDVQFNWYVDGVETHTATTEPKQEQNNSTYRVVSILAIQHKDWLSGKEFKCKVNNQALPAPVQKTISKPTGQPREPQVYVLAPHRDELSKNKVSVTCLVKDFYPTDIDIEWKSNGQPEPETKYSTTPAQLDSDGSYFLYSKLTVETNRWQQGTTFTCAVCHEALHNHYTEKSVSKSPGK")
14600
>>> value_observed("equine IgG7 K311L mutant (antibody, part only; not given: variable domains, not shown: another chain or arm of the molecule) constant: ASTTAPKVFPLASHSAATSGSTVALGCLVSSYFPEPVTVSWNSGALTSGVHTFPSVLQSSGLYSLSSMVTVPASSLKSQTYICNVAHPASSTKVDKKIVIKECGGCPTCPECLSVGPSVFIFPPKPKDVLMISRTPTVTCVVVDVGHDFPDVQFNWYVDGVETHTATTEPKQEQNNSTYRVVSILAIQHLDWLSGKEFKCKVNNQALPAPVQKTISKPTGQPREPQVYVLAPHRDELSKNKVSVTCLVKDFYPTDIDIEWKSNGQPEPETKYSTTPAQLDSDGSYFLYSKLTVETNRWQQGTTFTCAVMHEALHNHYTEKSVSKSPGK")
17.3
>>> value_observed("equine IgG7 Y436D mutant (antibody, part only; not given: Variable domains, not shown: another chain or arm of the molecule) constant: ASTTAPKVFPLASHSAATSGSTVALGCLVSSYFPEPVTVSWNSGALTSGVHTFPSVLQSSGLYSLSSMVTVPASSLKSQTYICNVAHPASSTKVDKKIVIKECGGCPTCPECLSVGPSVFIFPPKPKDVLMISRTPTVTCVVVDVGHDFPDVQFNWYVDGVETHTATTEPKQEQNNSTYRVVSILAIQHKDWLSGKEFKCKVNNQALPAPVQKTISKPTGQPREPQVYVLAPHRDELSKNKVSVTCLVKDFYPTDIDIEWKSNGQPEPETKYSTTPAQLDSDGSYFLYSKLTVETNRWQQGTTFTCAVMHEALHNHDTEKSVSKSPGK")
11.6

Input: Need Kd of equine IgG7 D312K mutant (antibody, part only; not given: variable domains, not shown: another chain or arm of the molecule) constant: ASTTAPKVFPLASHSAATSGSTVALGCLVSSYFPEPVTVSWNSGALTSGVHTFPSVLQSSGLYSLSSMVTVPASSLKSQTYICNVAHPASSTKVDKKIVIKECGGCPTCPECLSVGPSVFIFPPKPKDVLMISRTPTVTCVVVDVGHDFPDVQFNWYVDGVETHTATTEPKQEQNNSTYRVVSILAIQHKKWLSGKEFKCKVNNQALPAPVQKTISKPTGQPREPQVYVLAPHRDELSKNKVSVTCLVKDFYPTDIDIEWKSNGQPEPETKYSTTPAQLDSDGSYFLYSKLTVETNRWQQGTTFTCAVMHEALHNHYTEKSVSKSPGK , thanks.
Output: 16.4
